Source listed as ChEMBL document CHEMBL5154728.

assay: Selectivity index, ratio of CC50 for human HepG2.2.2.15 cells to IC50 for lamivudine/entecavir-resistant Hepatitis B virus infected in human HepG2 A64 cells; format: toxicity, cell-based; conditions: HepG2.2.2.15 cells (CC50), read-out: Selectivity Index
measure.name: selectivity ratio

>>> value_observed("Nc1nccc(OCCCOc2ccc3nc(SCc4ccccc4)n(Cc4ccco4)c(=O)c3c2)n1")
"> 41.7"
>>> value_observed("COc1ccccc1CSc1nc2ccc(OCCCOc3ccnc(N)n3)cc2c(=O)n1Cc1ccco1")
"> 100"

====

assay: Cytotoxicity against human HepG2 2.2.15 cells infected with Hepatitis B virus assessed as reduction in cell growth by CCK8 assay; format: toxicity, cell-based
measure.name: CC50

>>> value_observed("CN1CCN(CCCOc2ccc3nc(SCc4cccc(F)c4)n(Cc4ccco4)c(=O)c3c2)CC1")
"4.22 µM"
>>> value_observed("Nc1nccc(OCCCOc2ccc3nc(SCc4ccccc4)n(Cc4ccccc4)c(=O)c3c2)n1")
"> 10 µM"
>>> value_observed("COc1ccccc1CSc1nc2ccc(OCCCOc3ccnc(N)n3)cc2c(=O)n1Cc1ccco1")
"> 10 µM"
>>> value_observed("COc1ccccc1CSc1nc2ccc(OCCCN3CCN(C)CC3)cc2c(=O)n1Cc1ccco1")
"> 10 µM"
>>> value_observed("O=c1c2cc(OCCCN3CCC(O)CC3)ccc2nc(SCc2ccccc2)n1Cc1ccco1")
"> 10 µM"
>>> value_observed("Nc1nccc(OCCCOc2ccc3nc(SCc4ccc(F)cc4)n(Cc4ccccc4)c(=O)c3c2)n1")
"> 10 µM"
>>> value_observed("CCN(CC)CCOc1ccc2nc(SCc3ccccc3)n(Cc3cccs3)c(=O)c2c1")
"> 10 µM"
>>> value_observed("Nc1nccc(OCCOc2ccc3nc(SCc4ccccc4)n(Cc4ccco4)c(=O)c3c2)n1")
"1.25 µM"
>>> value_observed("Nc1nccc(OCCCOc2ccc3nc(SCc4ccccc4)n(CC4CCCCC4)c(=O)c3c2)n1")
"> 10 µM"
